method.description: Cmax in nude mouse at 200 umol/kg, po
Assay type: ADME, organism-based
Parameters: dose 200 umol/kg, route oral
experimental.conditions: in vivo
assay.endpoint: Cmax (µM)
Answer in µM, number only, no unit symbol.

# input For the compound shown here, Cc1ccc(CO)cc1N(C)c1ccnc(Nc2cc(N3CCOCC3)cc(N3CCOCC3)c2)n1 , give the reported Cmax.
# output 17

====

Each entry below carries its recorded Vd.
method.description: Volume of distribution at steady state in Han Wistar rat at 1 or 2.5 µmol/kg, iv and 5 or 10 µmol/kg, po
experimental.conditions: in vivo, read-out: Vdss

Observe how each entry below is paired with its result.
Cc1ccc(CO)cc1N(C)c1ccnc(Nc2cc(N3CCOCC3)nc(N3CCOCC3)c2)n1; 0.7 L/kg
Cc1ccc(CO)cc1N(C)c1ccnc(Nc2cc(N3CCOCC3)cc(S(C)(=O)=O)c2)n1; 0.4 L/kg

# input For the compound shown here, Cc1ccc(CO)cc1N(C)c1ccnc(Nc2cc(N3CCOCC3)cc(N3CCOCC3)c2)n1 , give the reported Vd.
# output 0.5 L/kg

====

method.description: Volume of distribution at steady state in Beagle dog at 2 umol/kg, iv and 5 umol/kg, po
Assay type: ADME, organism-based, Canis lupus familiaris
experimental.conditions: in vivo, read-out: Vdss
assay.endpoint: Vd (L/kg)
Answer in L/kg, number only, no unit symbol.

Cc1ccc(CO)cc1N(C)c1ccnc(Nc2cc(N3CCOCC3)cc(N3CCOCC3)c2)n1; 2.1

Now turn to the next molecule.
# input For the molecule shown here, Cc1ccc(CO)cc1N(C)c1ccnc(Nc2cc(N3CCOCC3)nc(N3CCOCC3)c2)n1 , give the reported Vd.
# output 1.6

====

method.description: AUC in nude mouse at 100 umol/kg, po
Assay type: ADME, organism-based
experimental.conditions: plasma
assay.endpoint: AUC (µM·h)
Answer in µM·h, number only, no unit symbol.

# input For the compound shown here, Cc1ccc(CO)cc1N(C)c1ccnc(Nc2cc(N3CCOCC3)cc(N3CCOCC3)c2)n1 , give the reported AUC.
# output 63

====

method.description: AUC in nude mouse at 10 umol/kg, po
Assay type: ADME, organism-based
experimental.conditions: plasma
assay.endpoint: AUC (µM·h)
Answer in µM·h, number only, no unit symbol.

# input For the compound shown here, Cc1ccc(CO)cc1N(C)c1ccnc(Nc2cc(N3CCOCC3)cc(N3CCOCC3)c2)n1 , give the reported AUC.
# output 1.6

====

Each entry below carries its recorded logD.
method.description: physchem
experimental.conditions: octanol/water
A bare number is all that is needed in reply.

Cc1ccc(CO)cc1N(C)c1ccnc(Nc2cc(N3CCOCC3)cc(N3CCOCC3)c2)n1; 3.1
Cc1ccc(CO)cc1N(C)c1ccnc(Nc2cc(N3CCCOCC3)cc(N3CCOCC3)c2)n1; 3.3
Cc1ccc(CO)cc1N(C)c1ccnc(Nc2cc(OC3CCOCC3)cc(N3CCOCC3)c2)n1; 3.7
CCN(c1ccnc(Nc2cc(N3CCOCC3)cc(N3CCOCC3)c2)n1)c1cc(CO)ccc1C; 3.8
COCCN(c1ccnc(Nc2cc(N3CCOCC3)cc(N3CCOCC3)c2)n1)c1cc(CO)ccc1C; 2.8

# input For the compound shown here, Cc1ccc(CO)cc1N(C)c1ccnc(Nc2cc(C(=O)N3CCOCC3)cc(N3CCOCC3)c2)n1 , give the reported logD.
# output 2.2

# input For the compound shown here, Cc1ccc(CO)cc1N(C)c1ccnc(Nc2cc(N3CCCCC3)cc(N3CCOCC3)c2)n1 , give the reported logD.
# output 4.2

# input For the compound shown here, Cc1ccc(CO)cc1N(C)c1ccnc(Nc2cc(N3CCCC3)cc(N3CCOCC3)c2)n1 , give the reported logD.
# output 3.8
